protocol.description: Dynamic vapor sorption / isothermal sorption (hygroscopicity)
Type: physicochemical
test.settings: between 0 to 80% RH; hydrochloride
Structures can show the parent of a compound that is named as a salt.
measured.endpoint: weight change (isothermal sorption plot) (%)

| molecule | measured.endpoint | unit.abbrev | observed.value |
| --- | --- | --- | --- |
| CN1CCC(C(=O)c2cccc(NC(=O)c3c(F)cc(F)cc3F)n2)CC1 [Lasmiditan hydrochloride amorphous form, lasmiditan hydrochloride, reference compound] | weight change (isothermal sorption plot) | % | 8.1 |
| CN1CCC(C(=O)c2cccc(NC(=O)c3c(F)cc(F)cc3F)n2)CC1 [Lasmiditan hydrochloride Form A, lasmiditan hydrochloride] | weight change (isothermal sorption plot) | % | 0.1 |
| CN1CCC(C(=O)c2cccc(NC(=O)c3c(F)cc(F)cc3F)n2)CC1 [Lasmiditan hydrochloride Form B, lasmiditan hydrochloride] | weight change (isothermal sorption plot) | % | 4.2 |
| CN1CCC(C(=O)c2cccc(NC(=O)c3c(F)cc(F)cc3F)n2)CC1 [Lasmiditan hydrochloride Form C, lasmiditan hydrochloride] | weight change (isothermal sorption plot) | % | 0.9 |
